Value source: patent US20240245673A1

target: SARS-CoV-2 Papain like protease (PLpro) (Severe acute respiratory syndrome coronavirus 2 (2019-nCoV) (SARS-CoV-2)); experiment: Papain Like Protease (PLpro) biochemical assay with profluorogenic substrate Z-RLRGG-AMC; conditions: SARS-CoV-2 PLpro 6.25 nM, 25 μM Z-RLRGG-AMC substrate, 60 minute reaction; read-out: IC50
pIC50: −log10 of the molar value.
Record Criterion met whenever pIC50 is at 7 or higher; record Criterion not met when lower.

Previously resolved entries follow.
{"columns": ["COMPOUND", "LABEL CLASS"],
 "data": [
  ["Cc1ccc(CN)cc1C(=O)N[C@H](C)c1cc(-c2cnn(C)c2)nc2ccccc12", "Criterion met"],
  ["Cc1cc(COCc2nccn2C)ccc1C(=O)N[C@H](C)c1cc(-c2cnn(C)c2)nc2ccccc12", "Criterion met"],
  ["Cc1ccc(CN)cc1C(=O)NC(C)c1cc(-n2cnnc2C(N)=O)nc2ccccc12 (stereo not shown)", "Criterion not met"]
]}

Ask | hey, is pIC50 for this one >= 7? Cc1cc(C(C)NC(=O)c2ncc[nH]2)ccc1C(=O)N[C@H](C)c1cc(-c2cnn(C)c2)nc2ccccc12 (stereo partly shown)
Reply | Criterion met

Ask | And what about the compound Cc1ccc(N2CCNCC2)cc1C(=O)NC(C)c1cc(-c2cnn(C)c2)cc2ccccc12 (stereo not shown) ?
Reply | Criterion met

Ask | Another compound to check: Cc1cc(CN(C)Cc2cscn2)ccc1C(=O)N[C@H](C)c1cc(-c2cnn(C)c2)nc2ccccc12
Reply | Criterion met

Ask | Cc1ccccc1C(=O)NC(C)c1cc(-c2cnn(C(C)(C)C)c2)nc2ccccc12 (stereo not shown) , same question.
Reply | Criterion not met

Ask | Now the same for Cc1ccccc1C(=O)NC(C)c1cc(-c2ccc(N)nc2)nc2ccccc12 (stereo not shown)
Reply | Criterion not met

Ask | Entry Cc1ccc(NC(=O)[C@H]2CCCCN2)cc1C(=O)N[C@H](C)c1cc(N)nc2ccccc12 (single isomer, unassigned) [Example 28] please
Reply | Criterion not met

Ask | Another: Cc1ccc(N2C[C@H]3C[C@@H]2CN3C)cc1C(=O)N[C@H](C)c1cc(-c2cnn(C)c2)nc2ccccc12 (single isomer, unassigned) [Example 281]
Reply | Criterion met

Ask | Please answer likewise for CC(=O)N(Cc1ccc(C(=O)N[C@H](C)c2cc(-c3cnn(C)c3)nc3ccccc23)c(C)c1)Cc1cscn1
Reply | Criterion not met

---

target: SARS-CoV-2 Papain like protease (PLpro) (Severe acute respiratory syndrome coronavirus 2 (2019-nCoV) (SARS-CoV-2), UniProt P0DTD1); assay: Papain Like Protease (PLpro) biochemical assay with profluorogenic substrate Z-RLRGG-AMC; conditions: SARS-CoV-2 PLpro 6.25 nM, 25 μM Z-RLRGG-AMC substrate, 60 minute reaction; read-out: IC50
ATTRIBUTE MEASURED: IC50 (µM)
# output: bare number, implied unit µM

# annotated cases, reported IC50 shown
{"columns": ["COMPOUND", "READING"],
 "data": [
  ["Cc1ccc(CN)cc1C(=O)NC(C)c1cc(-n2ccc(C#N)n2)nc2ccccc12 (stereo not shown)", 1.48],
  ["Cc1ccccc1C(=O)NC(C)c1cc(-c2ccc3oc(=O)[nH]c3c2)nc2ccccc12 (stereo not shown)", 0.406],
  ["Cc1ccc(N2CCN(C)CC2=O)cc1C(=O)N[C@H](C)c1cc(-c2cnn(C)c2)nc2ccccc12", 0.733]
]}

Now consider a different compound.
Ask | Given CNCc1ccc(C)c(C(=O)N[C@H](C)c2cc(-c3cc(C(=O)OC)c[nH]3)nc3ccccc23)c1 , state its recorded IC50.
Reply | 0.013
